Examples of molecules with documented FMC63 Binding Score follow.
- Test system: FMC63
- Sequence (as listed by the source): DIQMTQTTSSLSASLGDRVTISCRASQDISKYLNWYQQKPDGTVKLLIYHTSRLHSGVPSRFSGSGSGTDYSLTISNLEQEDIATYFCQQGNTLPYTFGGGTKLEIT
- Sequence (as listed by the source): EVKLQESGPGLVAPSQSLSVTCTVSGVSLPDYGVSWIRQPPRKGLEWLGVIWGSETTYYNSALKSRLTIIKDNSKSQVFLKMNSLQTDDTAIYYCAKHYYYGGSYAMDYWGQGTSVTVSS
- MEASUREMENT NOTES: CD19 variant binding to anti-CD19 antibody FMC63 (score)
- SETTINGS: Table 1B, CD19 triple mutants

MOLECULE	FMC63 Binding Score
W62H/F64F/F66R: CD19 variant (protein) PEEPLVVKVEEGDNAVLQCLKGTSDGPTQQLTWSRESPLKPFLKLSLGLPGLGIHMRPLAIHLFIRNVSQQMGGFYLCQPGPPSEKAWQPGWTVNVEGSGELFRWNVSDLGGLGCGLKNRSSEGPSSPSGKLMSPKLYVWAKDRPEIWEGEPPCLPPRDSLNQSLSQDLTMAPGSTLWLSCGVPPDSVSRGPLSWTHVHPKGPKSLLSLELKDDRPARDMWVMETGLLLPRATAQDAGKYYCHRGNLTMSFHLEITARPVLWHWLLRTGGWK	12.4 ± 2.3

Report FMC63 Binding Score for W62W/F64S/F66S: CD19 variant (protein) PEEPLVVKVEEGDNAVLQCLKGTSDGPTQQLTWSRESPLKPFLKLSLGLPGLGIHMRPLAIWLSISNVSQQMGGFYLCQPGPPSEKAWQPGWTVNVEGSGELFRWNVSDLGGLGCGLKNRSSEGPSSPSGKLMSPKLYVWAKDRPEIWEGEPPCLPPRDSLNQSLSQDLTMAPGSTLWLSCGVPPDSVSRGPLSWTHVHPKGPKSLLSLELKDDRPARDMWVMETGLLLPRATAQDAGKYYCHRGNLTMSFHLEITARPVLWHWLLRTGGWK 14. ± 3.2
